B1: Hairpin Ribozyme (parent)
chain: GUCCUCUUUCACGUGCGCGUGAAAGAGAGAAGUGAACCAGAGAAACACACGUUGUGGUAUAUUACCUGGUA

# Variants of: B1
# assay_protocol: self-cleavage, relative activity (ratio to wild type); higher = more cleavage; co-transcriptional
Lab note: compare self-cleavage against 0.3. Equal or greater, write true (1). Smaller, write false (0).

chain | label
GUCCUCUUUCACGUGCGCGUGAAAGAGAGAAGCGAACCAGAGAAACACACGUCGUGGUAUAUUACCUGGUA [U33C U53C] | false (0)
GUCCUCUUUCACGUGCGCGUGAAAGAGAGAAGUGAACCGCAGAAACACACGUUGUGGUAUAUUACCUGGUA [A39G G40C] | false (0)
GUCCUCUAUCGCGUGCGCGUGAAAGAGAGAAGUGAACCAGAGAAACACACGUUGUGGUAUAUUACCUGGUA [U8A A11G] | true (1)
GUCCUCUUUCACGUGCGCAUGAAAGAGAGAAGUGAACCAGAGAAACACACGUUGUGGAAUAUUACCUGGUA [G19A U58A] | true (1)
GUCCUCUUUCACGUACGCGUGAAAGAGAGAAGUGAACCAGAGAAACACACGUUGUGGUAUAUUACUUGGUA [G15A C66U] | true (1)
GUCCUCUUUCACGUGCGCGUGAAAGAGACAAGUGAACCAUAGAAACACACGUUGUGGUAUAUUACCUGGUA [G29C G40U] | false (0)
GUACUCUUUCACGUGCGCGUUAAAGAGAGAAGUGAACCAGAGAAACACACGUUGUGGUAUAUUACCUGGUA [C3A G21U] | true (1)
GUCCUCUUUCACGUGCGCGUGAAAGAGAGAAGUGAACCAGAGAAACACGCGUUGGGGUAUAUUACCUGGUA [A49G U55G] | true (1)
GUCCUCUUUCACGUGCGCGUGAAAGAGAGAACUCAACCAGAGAAACACACGUUGUGGUAUAUUACCUGGUA [G32C G34C] | false (0)
GGCCUCUUUCACGUGCGCGUGAAAGAGAGACGUGAACCAGAGAAACACACGUUGUGGUAUAUUACCUGGUA [U2G A31C] | false (0)
GUCCUCUUUCAGGUGCGCGUGAAGGAGAGAAGUGAACCAGAGAAACACACGUUGUGGUAUAUUACCUGGUA [C12G A24G] | true (1)
GUCCUCUUUCACGUGCGCGUGAAAGAGAGAAGUGAACCAGAGUAACACACGUUCUGGUAUAUUACCUGGUA [A43U G54C] | false (0)
GUCCUCUUUCACUUGCGCGUGUAAGAGAGAAGUGAACCAGAGAAACACACGUUGUGGUAUAUUACCUGGUA [G13U A22U] | true (1)
GUCCUCUUUCACGUGCGCGUGAAAGAGAGAAUUUAACCAGAGAAACACACGUUGUGGUAUAUUACCUGGUA [G32U G34U] | false (0)
GUCAUCUUUCACGUGCGCGUGAAAGAGAGAAGUGAACCAGAGAAACACACGUUGUGGUAUAUUACCUAGUA [C4A G68A] | false (0)
GUCCCCUUUCACGUGCGCGUGAAAGAGAGAAGUGAACCAGAGAAACACACGUUGUGGCAUAUUACCUGGUA [U5C U58C] | true (1)
GUCCUCUUUCACGUGCGCGUGAACGAGAGAAGUGAACCAGAGAAACACACGCUGUGGUAUAUUACCUGGUA [A24C U52C] | true (1)
GUCCUCUUUCACGUGCGCGUGAAAGAGAGAAGUGAACCACAGAAACACACGUUGUGGUAUAUUGCCUGGUA [G40C A64G] | false (0)
GUCCUCUUUCACGUGUGAGUGAAAGAGAGAAGUGAACCAGAGAAACACACGUUGUGGUAUAUUACCUGGUA [C16U C18A] | true (1)
GUCAACUUUCACGUGCGCGUGAAAGAGAGAAGUGAACCAGAGAAACACACGUUGUGGUAUAUUACCUGGUA [C4A U5A] | false (0)
GUUCUCUUUCACGUGCGCGUGAAAGAGAGAAGUGAACCAGAGAAACACACGGUGUGGUAUAUUACCUGGUA [C3U U52G] | true (1)
GUCCUCUUUCACGUGCGCGUGAAAGAGAGUAGUGAACCAGAGGAACACACGUUGUGGUAUAUUACCUGGUA [A30U A43G] | false (0)
